FYI, the data here is from patent US10159668B2.

assayed-target: yeast α-glucosidase (Yeast aG)
Format: biochemical
study-conditions: Embodiment 2, Table 2, single components
property-measured: Yeast aGI (IC50 to Yeast aG) (µg/mL)
Give just the numeric value; µg/mL need not be written.

Entry "O=C(O)c1cccnc1" ; Yeast aGI (IC50 to Yeast aG) = 517

Value of Yeast aGI (IC50 to Yeast aG) reported for the molecule NC(=O)CC1NC(=O)CNC1=O (stereo not shown) is 4.0

Memo: CCCCCCC(=O)OCC(CC)CCCC (stereo not shown) [2-ethylhexyl heptanoate] , reported Yeast aGI (IC50 to Yeast aG): 4.0

According to the records, this molecule "Nc1ncnc2nc[nH]c12" displays Yeast aGI (IC50 to Yeast aG) of 21.5
